System: ragweed pollen-specific T cells of ragweed allergic patients
Assay: Secondary and tertiary T cell proliferation assays of a panel of ragweed allergic patients with synthetic peptides
Type: cell-based, human
Details: positive = T cell proliferative response greater than 2-fold above culture medium control
Assign criterion met to entries whose POSITIVE % (patients whose T cells are stimulated by peptide) meets or exceeds 20%; assign criterion not met to the rest.

INSERT INTO results (macromolecule_sequence, label_class) VALUES
  ('YTVTSDKDDDVANC [RAE 15.6]', 'criterion met'),
  ('LENGAIFVASGVDPVLTPEQ [RAE 28.1]', 'criterion met'),
  ('FFPILGGITEVKDNDNSVDFC [RAE 4, synthetic peptide deduced from IPC Clone 5]', 'criterion met'),
  ('LNQELVVNSDKTIDGRGVK [RAE 45.15]', 'criterion not met'),
  ('GKADWAENRC [RAE 3.D]', 'criterion met'),
  ('RTDKDLLENGAIC [RAE 16.6]', 'criterion not met'),
  ('ETRRSLKTSGAYNIIDGCWRGKAD [RAE 24.E]', 'criterion not met'),
  ('GFFQVVNNNYDRWGTYA [RAE 26.15]', 'criterion met');

###

Tested on: ragweed pollen-specific T cells of ragweed allergic patients
Assay: Secondary and tertiary T cell proliferation assays of a panel of ragweed allergic patients with synthetic peptides
Format: cell-based, human
Conditions: positive = T cell proliferative response greater than 2-fold above culture medium control
Attribute: NUMBER POSITIVE (patients with T cell response to peptide)
MEASURED QUANTITY: NUMBER POSITIVE (patients with T cell response to peptide)

INSERT INTO measurements (macromolecule_sequence, assay_value) VALUES
  ('YTVTSDKDDDVANC [RAE 15.6]', 7),
  ('GFFQVVNNNYDRWGTYA [RAE 26.15]', 14),
  ('FFPILGGITEVKDNDNSVDFC [RAE 4, synthetic peptide deduced from IPC Clone 5]', 7),
  ('ETRRSLKTSGAYNIIDGCWRGKAD [RAE 24.E]', 0),
  ('LNQELVVNSDKTIDGRGVK [RAE 45.15]', 0),
  ('RTDKDLLENGAIC [RAE 16.6]', 0),
  ('GKADWAENRC [RAE 3.D]', 13),
  ('LENGAIFVASGVDPVLTPEQ [RAE 28.1]', 17);
